# Assay Protocol: growth suppression of yeast trafficking mutant, preliminary HTS, modulators of trafficking downstream of Golgi apparatus project, 1536-format plate, OD 615 nm (AID 637)
# Condition Label: yeast transport mutant growth, absorbance 615 nm, 18 h; active compounds read high
The source made the active and inactive calls. Cut-off read from the data, not from the text of the source: active = inhibition above about 30%; inactive = the rest.
Quantity: inhibition

Here's what some known entries look like.
>>> print(df.to_string())
                                   molecule            result
0  CCOc1cc(C(=O)N(C)Cc2cc3cc(OC)ccc3[nH]c2=O)cc(OCC)c1OCC  17.3% (inactive)
1          Nc1ncnc2nc(Sc3ccc(Cl)cc3)[nH]c12  4.59% (inactive)
2  Cc1nn(-c2ccc(F)cc2)c2sc(C(=O)N3CCCCCC3)cc12  12.2% (inactive)
3  CCOC(=O)c1cc2c(=O)n3cccc(C)c3nc2n(CCOC)c1=NC(=O)c1ccncc1  3.33% (inactive)
4  CN1[C@@H](CC(=O)c2ccccc2)CCC[C@H]1C[C@H](O)c1ccccc1  0.67% (inactive)

# context switch: different molecule, same inhibition
Lookup: For the molecule `CCn1c(SCc2cccc(C(F)(F)F)c2)nnc1-c1ccco1` , report inhibition.
Found: -0.16% (inactive)

FYI, the data here is from PubChem BioAssay.
